Target: EGFR del746-750 T790M (Homo sapiens, UniProt P00533, DEL746-750/T790M)
Construct: purchased Carna Biosciences 08-528
Sequence (P00533 with tags, fused parts or gaps DEL746-750/T790M limits assumed): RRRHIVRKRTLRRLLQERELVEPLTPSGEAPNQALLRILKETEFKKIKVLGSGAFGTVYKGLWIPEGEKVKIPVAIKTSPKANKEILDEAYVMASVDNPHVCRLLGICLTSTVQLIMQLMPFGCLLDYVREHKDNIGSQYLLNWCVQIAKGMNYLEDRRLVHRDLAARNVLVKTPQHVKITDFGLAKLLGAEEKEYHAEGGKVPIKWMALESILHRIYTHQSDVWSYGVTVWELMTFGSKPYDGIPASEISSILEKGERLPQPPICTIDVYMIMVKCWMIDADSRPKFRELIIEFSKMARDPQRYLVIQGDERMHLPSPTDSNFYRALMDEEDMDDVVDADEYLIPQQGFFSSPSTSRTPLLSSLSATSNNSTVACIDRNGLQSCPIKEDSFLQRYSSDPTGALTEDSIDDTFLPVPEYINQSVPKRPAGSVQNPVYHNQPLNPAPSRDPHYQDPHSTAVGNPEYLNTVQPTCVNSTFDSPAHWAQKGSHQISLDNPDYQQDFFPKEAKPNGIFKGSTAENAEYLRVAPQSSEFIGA
Test: EGFR del746-750 T790M biochemical assay (Caliper mobility shift)
Conditions: 5 μM ATP, 30 min, room temperature; apparent Ki (Morrison) converted by Cheng-Prusoff, Km of ATP 2.1 μM; read-out: EGFR(T790M/d746-750) Ki
Mark rule met only for Ki values smaller than 100 nM; exact matches and larger values are rule not met.

{"COMPOUND": "CO[C@@H]1CCN(c2nccc(Nc3cc4c(cn3)nc(C)n4C(C)C)n2)C[C@H]1O (racemic)", "LABEL_VALUE": "rule not met"}
{"COMPOUND": "COC1CCN(c2nccc(Nc3cc4c(cn3)c(C#N)cn4C(C)C)n2)CC1", "LABEL_VALUE": "rule met"}
{"COMPOUND": "CC(n1cc(C(=O)NC2CCOCC2)c2cnc(Nc3ccnc(N4CC[C@@H](O)[C@@H](F)C4)n3)cc21)C(F)(F)F (single isomer, unassigned) [Example 640]", "LABEL_VALUE": "rule met"}

Hello, is Ki of the following compound strictly smaller than 100 nM? CC(C)n1c(CO)nc2cnc(Nc3ccnc(N4CC[C@@](C)(O)[C@H](F)C4)n3)cc21
rule not met

Hello, is Ki of the following compound strictly smaller than 100 nM? CCC(C)n1cc(C(=O)N[C@H]2CCOC[C@H]2F)c2cnc(Nc3ccnc(N4CC[C@@H](O)[C@@H](F)C4)n3)cc21 (mixture of isomers)
rule met

Hello, is Ki of the following compound strictly smaller than 100 nM? Cc1nc2cnc(Nc3ccnc(N4CC[C@@H](S(C)(=O)=O)[C@H](F)C4)n3)cc2n1C(C)C (racemic)
rule not met

Hello, is Ki of the following compound strictly smaller than 100 nM? COC[C@H](C)n1c(C)nc2cnc(Nc3ccnc(N4CCC(OC)CC4)n3)cc21
rule not met

Hello, is Ki of the following compound strictly smaller than 100 nM? C[C@@H](O)c1nc2cnc(Nc3ccnc(N4CC[C@H](O)[C@H](F)C4)n3)cc2n1[C@H](C)C(F)(F)F
rule not met

Hello, is Ki of the following compound strictly smaller than 100 nM? CC(C)n1cc(C(=O)NC2COC2)c2cnc(Nc3ccnc(-c4cnn(S(=O)(=O)C5CC5)c4)n3)cc21
rule met

Hello, is Ki of the following compound strictly smaller than 100 nM? Cc1nc2cnc(Nc3ccnc(NCC(F)(F)C(N)=O)n3)cc2n1C(C)C
rule met

Hello, is Ki of the following compound strictly smaller than 100 nM? CC(C)n1c(CO)nc2cnc(Nc3ccnc(N4CC[C@H](O)[C@](C)(F)C4)n3)cc21 (racemic)
rule met

Hello, is Ki of the following compound strictly smaller than 100 nM? Cc1nc2cnc(Nc3ccnc(N4CC[C@@H](F)C4)n3)cc2n1C(C)C
rule not met

Hello, is Ki of the following compound strictly smaller than 100 nM? C[C@H](n1c([C@@H](C)O)nc2cnc(Nc3ccnc(N4CC[C@@](C)(O)[C@@H](F)C4)n3)cc21)C(F)(F)F (single isomer, unassigned)
rule met

Hello, is Ki of the following compound strictly smaller than 100 nM? Cc1nn(CCO)cc1-c1cn(C(C)C)c2cc(Nc3ccnc(-c4cnn(S(=O)(=O)C5CC5)c4)n3)ncc12
rule met

* * *

Biological target: EGFR del746-750 T790M (Homo sapiens, UniProt P00533, DEL746-750/T790M)
Experiment: EGFR del746-750 T790M biochemical assay (Caliper mobility shift)
Details: 5 μM ATP, 30 min, room temperature; apparent Ki (Morrison) converted by Cheng-Prusoff, Km of ATP 2.1 μM; read-out: EGFR(T790M/d746-750) Ki
EXPERIMENTAL_ENDPOINT: pKi
In textbook form, pKi equals minus log to base ten of the concentration in mol/L.

Notebook: pull reported pKi for EGFR del746-750 T790M (Homo sapiens, UniProt P00533, DEL746-750/T790M), entry Cc1nc2cnc(Nc3ccnc(N4CC[C@H]([S+](C)[O-])[C@H](F)C4)n3)cc2n1C(C)C (mixture of isomers) [Example 618]
6.63

Notebook: pull reported pKi for EGFR del746-750 T790M (Homo sapiens, UniProt P00533, DEL746-750/T790M), entry CO[C@H]1CCN(c2nccc(Nc3cc4c(cn3)nc([C@@H](C)O)n4[C@@H](C)C(F)(F)F)n2)C[C@H]1F [Example 288]
8.40

Notebook: pull reported pKi for EGFR del746-750 T790M (Homo sapiens, UniProt P00533, DEL746-750/T790M), entry Cc1nc2cnc(Nc3ccnc(-c4cn(CC5CC5)nc4Cl)n3)cc2n1C(C)C [Example 625]
7.41

Notebook: pull reported pKi for EGFR del746-750 T790M (Homo sapiens, UniProt P00533, DEL746-750/T790M), entry CC(C)n1cc(-c2cnn(CCO)c2)c2cnc(Nc3ccnc(-c4cnn(S(=O)(=O)C5CC5)c4)n3)cc21 [Example 393]
8.95

* * *

Target: EGFR del746-750 T790M (Homo sapiens, UniProt P00533, DEL746-750/T790M)
Experiment: EGFR del746-750 T790M biochemical assay (Caliper mobility shift)
Details: 5 μM ATP, 30 min, room temperature; apparent Ki (Morrison) converted by Cheng-Prusoff, Km of ATP 2.1 μM; read-out: EGFR(T790M/d746-750) Ki
EXPERIMENTAL_ENDPOINT: Ki (nM)
Just the number please, in nM, no unit attached.

{"MOLECULE": "CCC(C)n1cc(C(=O)NC2CCOCC2)c2cnc(Nc3ccnc(N4CC[C@@H](OC)[C@@H](F)C4)n3)cc21 (single isomer, unassigned) [Example 376]", "Ki, nM": 2.88}

What does the data say about its Ki? Entry: Cc1nc2cnc(Nc3ccnc(-c4cnoc4)n3)cc2n1C(C)C
14.7

What does the data say about its Ki? Entry: CCNC(=O)c1cn(C(C)C)c2cc(Nc3ccnc(N4CCC(OC)CC4)n3)ncc12
20.2

What does the data say about its Ki? Entry: Cc1nc2cnc(Nc3ccnc(-c4cnn(CCCN)c4)n3)cc2n1C(C)C
47.7

What does the data say about its Ki? Entry: CC(C)n1c(CO)nc2cnc(Nc3ccnc(N4CCCCC4CO)n3)cc21 (stereo not shown)
273

What does the data say about its Ki? Entry: CCC(C)n1cc(C(=O)NC2CCOCC2)c2cnc(Nc3ccnc(-c4cnn(S(=O)(=O)C5CC5)c4)n3)cc21 (single isomer, unassigned; (-)) [Example 322]
1.34

What does the data say about its Ki? Entry: CNc1nc(C)c(-c2nccc(Nc3cc4c(cn3)nc(C)n4C(C)C)n2)s1
0.773

* * *

Target: phosphor-EGFR in H1975(L585R/T790M) mutant EGFR expressing cells (Homo sapiens, UniProt P00533, L858R/T790M)
Sequence (P00533 25-1210 T790M/L858R): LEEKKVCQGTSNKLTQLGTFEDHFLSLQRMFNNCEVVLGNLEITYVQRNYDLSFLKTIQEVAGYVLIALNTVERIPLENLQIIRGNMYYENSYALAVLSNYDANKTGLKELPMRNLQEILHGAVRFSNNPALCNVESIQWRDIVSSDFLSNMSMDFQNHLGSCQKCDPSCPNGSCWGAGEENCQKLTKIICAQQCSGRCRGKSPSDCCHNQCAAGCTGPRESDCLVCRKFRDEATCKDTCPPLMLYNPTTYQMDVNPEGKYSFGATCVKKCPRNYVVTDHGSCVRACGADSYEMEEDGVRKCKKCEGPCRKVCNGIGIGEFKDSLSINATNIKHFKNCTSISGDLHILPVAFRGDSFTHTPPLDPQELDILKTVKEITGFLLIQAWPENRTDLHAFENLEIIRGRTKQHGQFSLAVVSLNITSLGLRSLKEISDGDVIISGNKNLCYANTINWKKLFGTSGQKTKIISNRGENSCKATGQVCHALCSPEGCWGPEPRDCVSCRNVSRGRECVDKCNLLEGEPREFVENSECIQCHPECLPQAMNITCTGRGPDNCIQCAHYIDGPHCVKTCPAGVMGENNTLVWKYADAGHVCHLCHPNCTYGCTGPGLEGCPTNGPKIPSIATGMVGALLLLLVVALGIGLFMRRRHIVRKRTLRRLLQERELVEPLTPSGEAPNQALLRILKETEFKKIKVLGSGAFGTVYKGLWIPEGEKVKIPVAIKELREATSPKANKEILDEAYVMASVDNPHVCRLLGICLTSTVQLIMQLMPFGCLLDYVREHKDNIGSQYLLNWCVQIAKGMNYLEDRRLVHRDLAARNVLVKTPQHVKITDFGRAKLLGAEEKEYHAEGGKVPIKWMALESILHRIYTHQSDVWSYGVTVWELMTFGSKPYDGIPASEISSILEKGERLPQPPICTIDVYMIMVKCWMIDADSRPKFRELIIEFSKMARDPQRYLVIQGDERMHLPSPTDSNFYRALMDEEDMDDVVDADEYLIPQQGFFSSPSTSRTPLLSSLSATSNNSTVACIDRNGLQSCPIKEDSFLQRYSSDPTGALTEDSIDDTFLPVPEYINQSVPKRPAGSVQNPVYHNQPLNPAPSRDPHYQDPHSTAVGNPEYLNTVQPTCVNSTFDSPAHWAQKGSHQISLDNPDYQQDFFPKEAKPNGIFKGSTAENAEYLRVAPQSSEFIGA
Assay: H1975 pEGFR MSD cellular assay
Details: NCI-H1975 cells, serum starved, 1 hour compound incubation, pEGFR Tyr1068 MSD
compounds and their reported pEC50
In textbook form, pEC50 equals minus log to base ten of the concentration in mol/L.

{"COMPOUND": "Cc1nc2cnc(Nc3ccnc(-c4cnn(CC5CC5)c4)n3)cc2n1C(C)C [Example 395]", "RESULT": 5.87}
{"COMPOUND": "CC(C)n1c(C2CCCO2)nc2cnc(Nc3ccnc(-c4cnn(S(=O)(=O)C5CC5)c4)n3)cc21 (racemic) [Example 565]", "RESULT": 5.94}
{"COMPOUND": "COC1CCN(c2nccc(Nc3cc4c(cn3)c(C#N)cn4C(C)C)n2)CC1 [Example 58]", "RESULT": 5.85}

Then there is this compound:
What does the data say about its pEC50? Entry: CC(C)n1c(Cl)c(C(=O)NC2CCOCC2)c2cnc(Nc3ccnc(-c4cnn(S(=O)(=O)C5CC5)c4)n3)cc21 [Example 262]
7.24

* * *

Molecular target: EGFR del746-750 T790M (Homo sapiens, UniProt P00533, DEL746-750/T790M)
Experiment: EGFR del746-750 T790M biochemical assay (Caliper mobility shift)
Conditions: 5 μM ATP, 30 min, room temperature; apparent Ki (Morrison) converted by Cheng-Prusoff, Km of ATP 2.1 μM; read-out: EGFR(T790M/d746-750) Ki
Mark T only for Ki values smaller than 50 nM; exact matches and larger values are F.

Worked cases, answers included:
{"COMPOUND": "COC1CCN(c2nccc(Nc3cc4c(cn3)nc(C)n4C(C)C)n2)CC1", "LABEL_VALUE": "T"}
{"COMPOUND": "CC1CCC(n2c(CO)nc3cnc(Nc4ccnc(-c5cnn(S(=O)(=O)C6CC6)c5)n4)cc32)C1 (centres unmarked)", "LABEL_VALUE": "T"}
{"COMPOUND": "CO[C@@H]1CCN(c2nccc(Nc3cc4c(cn3)nc(CO)n4C(C)C)n2)C[C@H]1C", "LABEL_VALUE": "F"}

Hello, is Ki of the following compound strictly smaller than 50 nM? CCc1ncc(-c2nccc(Nc3cc4c(cn3)nc(CO)n4C(C)C)n2)s1
T

Hello, is Ki of the following compound strictly smaller than 50 nM? CC(C)n1c(CO)nc2cnc(Nc3ccnc(N4CC[C@@H](O)[C@H](C(F)(F)F)C4)n3)cc21 (racemic)
F

Hello, is Ki of the following compound strictly smaller than 50 nM? Cc1nc2cnc(Nc3ccnc(N4CC[C@@H](C#N)C4)n3)cc2n1C(C)C
F

Hello, is Ki of the following compound strictly smaller than 50 nM? COC1CCN(c2nccc(Nc3cc4c(cn3)nc(C)n4C(C)C)n2)CC1(F)F (racemic)
T

Hello, is Ki of the following compound strictly smaller than 50 nM? COC1CCN(c2nccc(Nc3cc4c(cn3)c(C(=O)NC3CCN(C)CC3)cn4C(C)C)n2)CC1
T
